Target: PI3Kγ (Homo sapiens, UniProt P48736)
Construct: made in house
Sequence (P48736 whole entry): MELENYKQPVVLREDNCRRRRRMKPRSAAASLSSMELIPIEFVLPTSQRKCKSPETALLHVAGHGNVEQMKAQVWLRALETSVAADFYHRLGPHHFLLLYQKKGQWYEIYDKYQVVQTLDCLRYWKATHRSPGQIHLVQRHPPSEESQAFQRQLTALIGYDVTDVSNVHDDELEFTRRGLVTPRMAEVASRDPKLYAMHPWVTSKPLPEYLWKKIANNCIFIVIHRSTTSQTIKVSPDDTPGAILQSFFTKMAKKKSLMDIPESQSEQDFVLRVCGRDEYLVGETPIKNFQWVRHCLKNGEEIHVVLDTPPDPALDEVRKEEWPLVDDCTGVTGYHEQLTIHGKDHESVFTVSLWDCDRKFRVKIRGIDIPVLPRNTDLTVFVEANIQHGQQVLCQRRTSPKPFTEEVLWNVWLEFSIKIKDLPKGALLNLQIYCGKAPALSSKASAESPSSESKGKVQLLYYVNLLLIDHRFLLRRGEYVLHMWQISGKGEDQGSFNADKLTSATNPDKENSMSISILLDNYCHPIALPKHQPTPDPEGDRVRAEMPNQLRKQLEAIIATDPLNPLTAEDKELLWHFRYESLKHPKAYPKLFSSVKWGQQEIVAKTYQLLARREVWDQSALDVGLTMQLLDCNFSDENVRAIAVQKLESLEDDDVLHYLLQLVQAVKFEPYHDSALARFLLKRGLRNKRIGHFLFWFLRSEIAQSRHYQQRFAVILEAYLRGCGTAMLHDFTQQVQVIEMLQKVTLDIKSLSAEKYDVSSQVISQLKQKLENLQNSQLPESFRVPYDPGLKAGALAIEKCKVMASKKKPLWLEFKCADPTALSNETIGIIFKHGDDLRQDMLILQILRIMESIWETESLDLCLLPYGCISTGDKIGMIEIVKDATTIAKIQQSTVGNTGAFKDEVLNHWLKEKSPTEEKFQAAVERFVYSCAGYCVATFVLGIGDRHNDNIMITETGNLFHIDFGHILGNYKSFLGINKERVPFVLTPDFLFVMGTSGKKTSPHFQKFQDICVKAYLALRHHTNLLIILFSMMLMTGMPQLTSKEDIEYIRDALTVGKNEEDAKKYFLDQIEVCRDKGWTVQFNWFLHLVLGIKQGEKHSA
Assay: TR-FRET enzymatic activity assay, PI3Kγ
Type: biochemical
Details: Table 2a; same assay; read-out: PI3Kγ IC50
Protocol: The compounds of formula (I) were characterized for their enzymatic activity against the PI3K isoforms. The activities were measured using a time-resolved fluorescence resonance energy transfer (TR-FRET) assay.
pIC50: −log10 of the molar value.
result-type: pIC50

Example compounds with recorded pIC50:
compound: C[C@H](Nc1nc(N)nc(N)c1Cl)c1nc2cc(F)cc(F)c2c(=O)n1-c1cc[nH]n1 [Compound 236]
result-type: pIC50
value-reported: < 5.00
//
compound: Cc1c[nH]nc1-n1c([C@@H](Nc2nc(N)nc(N)c2C#N)C2CC2)nc2c(C#N)cccc2c1=O [Compound 241]
result-type: pIC50
value-reported: < 5.00
//
compound: Nc1nc(N)c(Cl)c(N[C@H](c2nc3c(C(F)F)cc(F)cc3c(=O)n2-c2cc[nH]n2)C2CC2)n1 [Compound 144]
result-type: pIC50
value-reported: < 5.00

Would you kindly look at the next entry?
GET /values?readout=pIC50&item= C[C@H](Nc1nc(N)nc(N)c1C#N)c1nc2cccc(C(F)F)c2c(=O)n1-c1cn[nH]c1 [Compound 212]
7.47

====

Biological target: PI3Kδ (Homo sapiens)
Construct: made in house
Sequence (O00329 whole entry): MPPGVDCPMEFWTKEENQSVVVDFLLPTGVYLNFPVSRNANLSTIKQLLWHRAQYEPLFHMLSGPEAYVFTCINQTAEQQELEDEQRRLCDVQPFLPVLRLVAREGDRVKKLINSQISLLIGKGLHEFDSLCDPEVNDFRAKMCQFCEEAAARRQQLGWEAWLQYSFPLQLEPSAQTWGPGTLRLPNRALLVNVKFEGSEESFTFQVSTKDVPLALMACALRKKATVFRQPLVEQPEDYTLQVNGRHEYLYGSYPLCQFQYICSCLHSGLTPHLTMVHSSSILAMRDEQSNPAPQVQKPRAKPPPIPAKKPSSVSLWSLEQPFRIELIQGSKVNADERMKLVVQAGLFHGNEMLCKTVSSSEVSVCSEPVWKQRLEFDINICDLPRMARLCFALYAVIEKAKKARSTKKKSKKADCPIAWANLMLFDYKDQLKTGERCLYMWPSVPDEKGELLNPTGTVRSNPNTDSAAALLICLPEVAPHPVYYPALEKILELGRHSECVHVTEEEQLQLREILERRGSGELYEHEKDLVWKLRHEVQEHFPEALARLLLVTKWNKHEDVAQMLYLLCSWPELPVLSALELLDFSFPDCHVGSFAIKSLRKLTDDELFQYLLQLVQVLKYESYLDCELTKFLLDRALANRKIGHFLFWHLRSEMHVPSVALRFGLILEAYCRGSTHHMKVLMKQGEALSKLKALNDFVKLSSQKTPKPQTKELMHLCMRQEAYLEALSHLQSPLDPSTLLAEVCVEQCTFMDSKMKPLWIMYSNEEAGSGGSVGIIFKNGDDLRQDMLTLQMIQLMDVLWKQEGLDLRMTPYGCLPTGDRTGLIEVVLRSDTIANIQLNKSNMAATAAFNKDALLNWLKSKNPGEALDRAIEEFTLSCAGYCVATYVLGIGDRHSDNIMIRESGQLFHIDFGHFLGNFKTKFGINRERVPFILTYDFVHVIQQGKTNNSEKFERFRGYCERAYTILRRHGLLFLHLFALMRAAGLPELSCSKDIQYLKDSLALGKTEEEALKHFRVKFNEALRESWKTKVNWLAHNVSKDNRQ
Sequence (P27986 whole entry partner): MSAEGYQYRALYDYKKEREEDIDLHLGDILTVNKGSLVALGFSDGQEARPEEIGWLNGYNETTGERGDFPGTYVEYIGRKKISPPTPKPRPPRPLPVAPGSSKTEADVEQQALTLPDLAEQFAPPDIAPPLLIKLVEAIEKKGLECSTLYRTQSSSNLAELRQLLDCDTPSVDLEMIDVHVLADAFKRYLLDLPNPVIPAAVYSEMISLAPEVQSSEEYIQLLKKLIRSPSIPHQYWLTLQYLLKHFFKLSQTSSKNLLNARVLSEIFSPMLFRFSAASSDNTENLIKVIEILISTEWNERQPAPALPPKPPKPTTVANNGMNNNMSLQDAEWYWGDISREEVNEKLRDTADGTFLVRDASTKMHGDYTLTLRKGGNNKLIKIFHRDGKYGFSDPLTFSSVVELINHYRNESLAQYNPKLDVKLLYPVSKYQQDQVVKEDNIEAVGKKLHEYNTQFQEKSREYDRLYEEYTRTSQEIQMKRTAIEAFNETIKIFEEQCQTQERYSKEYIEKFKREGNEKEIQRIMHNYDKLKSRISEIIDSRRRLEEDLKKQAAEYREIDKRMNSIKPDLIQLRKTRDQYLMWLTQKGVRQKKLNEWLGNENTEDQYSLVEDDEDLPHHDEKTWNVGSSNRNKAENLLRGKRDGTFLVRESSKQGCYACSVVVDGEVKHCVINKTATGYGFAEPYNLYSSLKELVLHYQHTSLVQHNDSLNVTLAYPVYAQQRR
Test: TR-FRET enzymatic activity assay, PI3Kδ
Type: biochemical
Settings: Table 2; TR-FRET, 2x Km ATP, 30 minutes at 25° C.
Reported pIC50 values follow for various compounds
Here pIC50 is given on a logarithmic scale as minus log10 of the concentration in mol/L.

Example compounds with recorded pIC50:
compound: Cc1nc(N)nc(N[C@@H](c2ccccc2)c2nc3cccc(Cl)c3c(=O)n2-c2cn[nH]c2)c1C#N [Compound 108]
pIC50: 9.00
//
compound: CC[C@H](Nc1nc(N)nc(N)c1C#N)c1nc2cccc(C#N)c2c(=O)n1-c1cc[nH]n1 [Compound 97]
pIC50: 7.80

GET /values?readout=pIC50&item= C[C@H](NC(=O)c1nccnc1N)c1nc2cccc(Cl)c2c(=O)n1-c1cc[nH]n1 [Compound 121]
7.70

GET /values?readout=pIC50&item= CC[C@H](Nc1nc(N)nc(N)c1C#N)c1nc2cccc(Cl)c2c(=O)n1-c1n[nH]cc1Br [Compound 83]
9.00

====

Target: PI3Kγ (Homo sapiens)
Construct: made in house
Assay: TR-FRET enzymatic activity assay, PI3Kγ
Type: biochemical
Conditions: Table 2a; same assay; read-out: PI3Kγ IC50
result-type: IC50 (nM)
Response body: numeric value in nM, unit text excluded.

smiles: N#Cc1c(N[C@H](c2nc3cccc(C(F)F)c3c(=O)n2-c2cc[nH]n2)C2CC2)nc(N)nc1C(F)F
IC50, nM: 2300

smiles: C[C@H](Nc1nc(N)nc(N)c1C#N)c1nc2c(F)cc(F)cc2c(=O)n1-c1cc[nH]n1
IC50, nM: 260

smiles: N#Cc1c(N)nc(N)nc1N[C@H](c1nc2cccc(C(F)F)c2c(=O)n1-c1cc[nH]n1)C1CCC1
IC50, nM: 2000

smiles: C[C@H](Nc1nc(N)nc(C(F)F)c1C#N)c1nc2c(Cl)ccc(Cl)c2c(=O)n1-c1cc[nH]n1
IC50, nM: 9900

smiles: CCC[C@H](Nc1nc(N)nc(N)c1C#N)c1nc2cccc(Cl)c2c(=O)n1-c1cc[nH]n1
IC50, nM: 320

GET /values?readout=IC50&item= Cc1ccc(Cl)c2nc([C@H](C)Nc3nc(N)nc(N)c3C#N)n(-c3cc[nH]n3)c(=O)c12
360

GET /values?readout=IC50&item= C[C@H](Nc1nc(N)nc(N)c1Cl)c1nc2ccc(F)c(Cl)c2c(=O)n1-c1cc[nH]n1
3500

GET /values?readout=IC50&item= C[C@H](Nc1nc(N)nc(N)c1C#N)c1nc2cc(F)cc(F)c2c(=O)n1-c1cc[nH]n1
9600

GET /values?readout=IC50&item= C[C@H](Nc1nc(N)nc(N)c1Cl)c1nc2cccc(C(F)F)c2c(=O)n1-c1cn[nH]c1
520

GET /values?readout=IC50&item= C[C@H](Nc1nc(N)nc(C(F)F)c1C#N)c1nc2c(Cl)cc(F)cc2c(=O)n1-c1cn[nH]c1
840

GET /values?readout=IC50&item= Cc1c[nH]nc1-n1c([C@@H](Nc2nc(N)nc(N)c2Cl)C2CC2)nc2cccc(Cl)c2c1=O
8600

GET /values?readout=IC50&item= C[C@H](Nc1ncnc(N)c1Cl)c1nc2cccc(Cl)c2c(=O)n1-c1cc[nH]n1
4300

====

Target: PI3Kβ (Homo sapiens, UniProt P42338)
Construct: made in house
Sequence (P42338 whole entry): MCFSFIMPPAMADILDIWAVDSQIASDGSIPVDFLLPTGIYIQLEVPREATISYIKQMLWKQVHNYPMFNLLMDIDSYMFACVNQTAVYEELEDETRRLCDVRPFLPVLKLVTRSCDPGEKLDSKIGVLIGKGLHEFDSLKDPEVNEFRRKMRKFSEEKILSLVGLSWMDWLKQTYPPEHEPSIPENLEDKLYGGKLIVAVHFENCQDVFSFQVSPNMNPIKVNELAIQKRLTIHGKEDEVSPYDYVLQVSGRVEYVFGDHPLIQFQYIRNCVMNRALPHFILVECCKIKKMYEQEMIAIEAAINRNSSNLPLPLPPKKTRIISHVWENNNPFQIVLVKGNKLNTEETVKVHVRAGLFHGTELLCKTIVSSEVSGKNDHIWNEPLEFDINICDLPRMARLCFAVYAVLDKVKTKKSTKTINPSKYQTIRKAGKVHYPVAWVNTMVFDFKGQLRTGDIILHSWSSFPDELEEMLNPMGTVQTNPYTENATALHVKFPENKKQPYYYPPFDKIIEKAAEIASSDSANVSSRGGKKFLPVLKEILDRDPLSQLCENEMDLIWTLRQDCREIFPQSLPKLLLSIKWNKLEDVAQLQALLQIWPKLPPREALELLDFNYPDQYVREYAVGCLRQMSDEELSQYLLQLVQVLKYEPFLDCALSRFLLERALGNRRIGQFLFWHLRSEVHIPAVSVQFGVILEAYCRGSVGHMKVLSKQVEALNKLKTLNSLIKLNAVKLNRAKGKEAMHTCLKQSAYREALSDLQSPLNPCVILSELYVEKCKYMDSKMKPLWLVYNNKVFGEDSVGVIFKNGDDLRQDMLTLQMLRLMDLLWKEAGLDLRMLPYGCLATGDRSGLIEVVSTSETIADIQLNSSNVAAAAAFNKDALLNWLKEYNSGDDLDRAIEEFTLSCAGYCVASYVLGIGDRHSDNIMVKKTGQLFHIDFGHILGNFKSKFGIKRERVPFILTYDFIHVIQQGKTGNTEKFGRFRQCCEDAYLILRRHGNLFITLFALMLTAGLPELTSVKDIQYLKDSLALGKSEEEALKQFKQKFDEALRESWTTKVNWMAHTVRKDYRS
Sequence (P27986 whole entry partner): as the sequence (P27986 whole entry partner) above
Assay: TR-FRET enzymatic activity assay, PI3Kβ
Format: biochemical
Details: Table 2a; same assay
result-type: pIC50
Here pIC50 is given on a logarithmic scale as minus log10 of the concentration in mol/L.

Example compounds with recorded pIC50:
smiles: C[C@H](Nc1nc(N)nc(C(F)F)c1C#N)c1nc2cccc(C(F)(F)F)c2c(=O)n1-c1cc[nH]n1
pIC50: 7.47

smiles: Cc1c[nH]nc1-n1c([C@@H](Nc2nc(N)nc(Cl)c2C#N)C2CC2)nc2c(C#N)cccc2c1=O
pIC50: 6.49

smiles: C[C@H](Nc1nc(N)nc(N)c1Cl)c1nc2c(F)ccc(F)c2c(=O)n1-c1cc[nH]n1
pIC50: 7.70

smiles: C[C@H](Nc1nc(N)nc(N)c1Cl)c1nc2c(F)ccc(Cl)c2c(=O)n1-c1cn[nH]c1
pIC50: 7.66

smiles: C[C@H](Nc1nc(N)nc(N)c1C#N)c1nc2c(C(F)F)cc(F)cc2c(=O)n1-c1cc[nH]n1
pIC50: 8.70

GET /values?readout=pIC50&item= C[C@H](Nc1nc(N)nc(N)c1Cl)c1nc2c(Cl)ccc(C(F)F)c2c(=O)n1-c1cc[nH]n1
8.05

GET /values?readout=pIC50&item= N#Cc1c(N[C@H](c2nc3c(C(F)F)cc(F)cc3c(=O)n2-c2cc[nH]n2)C2CC2)nc(N)nc1C(F)F
7.55

====

Molecular target: PI3Kγ (Homo sapiens)
Construct: made in house
Test: TR-FRET enzymatic activity assay, PI3Kγ
Type: biochemical
Details: Table 2; TR-FRET, 2x Km ATP, 30 minutes at 25° C.; read-out: PI3Kγ IC50
pIC50: −log10 of the molar value.
Mark label 1 for reported pIC50 of 6 or greater; mark label 0 for anything smaller.

molecule: CC[C@H](Nc1ncnc2cccnc12)c1nc2c(Cl)ccc(Cl)c2c(=O)n1-c1cn[nH]c1 [Compound 41]
discrete-label: label 0

# check: pIC50 of C[C@H](Nc1nc(N)nc(N)c1Cl)c1nc2c(F)ccc(Cl)c2c(=O)n1-c1cc[nH]n1 [Compound 67] is greater than or equal to 6
label 0

# check: pIC50 of CC[C@H](Nc1ncnc2scnc12)c1nc2c(Cl)ccc(Cl)c2c(=O)n1-c1cn[nH]c1 [Compound 39] is greater than or equal to 6
label 0

# check: pIC50 of CC[C@H](Nc1nc(N)nc(N)c1C#N)c1nc2c(C)ccc(F)c2c(=O)n1-c1cc[nH]n1 [Compound 36] is greater than or equal to 6
label 0

# check: pIC50 of O=c1c2c(Cl)cccc2nc([C@@H](Nc2ncnc3scnc23)C2CC2)n1-c1cn[nH]c1 [Compound 25] is greater than or equal to 6
label 1

====

Target: PI3Kδ (Homo sapiens)
Construct: made in house
Assay: TR-FRET enzymatic activity assay, PI3Kδ
Type: biochemical
Conditions: Table 2a; same assay
Reported pIC50 values follow for various compounds
Here pIC50 is given on a logarithmic scale as minus log10 of the concentration in mol/L.

compound: C[C@H](Nc1nc(N)nc(N)c1C#N)c1nc2cc(F)cc(F)c2c(=O)n1-c1cc[nH]n1 [Compound 235]
pIC50: 7.92

Fill in the recorded pIC50 for this compound, with PI3Kδ (Homo sapiens) as test system: C[C@H](Nc1nc(N)nc(C(F)F)c1C#N)c1nc2c(C(F)F)cc(F)cc2c(=O)n1-c1cc[nH]n1 [Compound 142]
7.33

Fill in the recorded pIC50 for this compound, with PI3Kδ (Homo sapiens) as test system: C[C@H](NC(=O)c1nc(Cl)c(N)nc1N)c1nc2c(F)ccc(Cl)c2c(=O)n1-c1cc[nH]n1 [Compound 277]
7.30

Fill in the recorded pIC50 for this compound, with PI3Kδ (Homo sapiens) as test system: C[C@H](Nc1nc(N)nc(C(F)F)c1Cl)c1nc2c(F)c(F)ccc2c(=O)n1-c1cc[nH]n1 [Compound 234]
5.12

Fill in the recorded pIC50 for this compound, with PI3Kδ (Homo sapiens) as test system: Nc1nc(N)c(Cl)c(N[C@H](c2nc3c(Cl)cc(F)cc3c(=O)n2-c2cc[nH]n2)C2CCC2)n1 [Compound 129]
7.07

Fill in the recorded pIC50 for this compound, with PI3Kδ (Homo sapiens) as test system: C[C@H](Nc1nc(N)nc(N)c1Cl)c1nc2cc(F)cc(Cl)c2c(=O)n1-c1cc[nH]n1 [Compound 238]
7.82

Fill in the recorded pIC50 for this compound, with PI3Kδ (Homo sapiens) as test system: CCC[C@H](Nc1nc(N)nc(N)c1Cl)c1nc2cccc(Cl)c2c(=O)n1-c1c[nH]cn1 [Compound 282]
7.59

Fill in the recorded pIC50 for this compound, with PI3Kδ (Homo sapiens) as test system: C[C@H](Nc1nc(N)nc(N)c1Cl)c1nc2c(F)ccc(Cl)c2c(=O)n1-c1cn[nH]c1 [Compound 159]
8.52

Fill in the recorded pIC50 for this compound, with PI3Kδ (Homo sapiens) as test system: Nc1nc(N)c(Cl)c(N[C@@H](CO)c2nc3c(Cl)cc(F)cc3c(=O)n2-c2cc[nH]n2)n1 [Compound 149]
6.68

Fill in the recorded pIC50 for this compound, with PI3Kδ (Homo sapiens) as test system: N#Cc1c(N[C@H](c2nc3c(Cl)cc(F)cc3c(=O)n2-c2cn[nH]c2)C2CC2)nc(N)nc1C(F)F [Compound 184]
8.05

Fill in the recorded pIC50 for this compound, with PI3Kδ (Homo sapiens) as test system: C[C@H](Nc1nc(N)nc(C(F)F)c1C#N)c1nc2c(Cl)ccc(Cl)c2c(=O)n1-c1cc[nH]n1 [Compound 190]
8.10

Fill in the recorded pIC50 for this compound, with PI3Kδ (Homo sapiens) as test system: CCC[C@H](Nc1nc(N)nc(N)c1C#N)c1nc2cccc(Cl)c2c(=O)n1-c1cn[nH]c1 [Compound 249]
9.00

Fill in the recorded pIC50 for this compound, with PI3Kδ (Homo sapiens) as test system: C[C@H](Nc1nc(N)nc(N)c1C#N)c1nc2c(Cl)cc(F)cc2c(=O)n1-c1c[nH]cn1 [Compound 285]
9.00

Fill in the recorded pIC50 for this compound, with PI3Kδ (Homo sapiens) as test system: C[C@H](Nc1nc(N)nc(C(F)F)c1C#N)c1nc2cccc(Cl)c2c(=O)n1-c1cc[nH]n1 [Compound 166]
8.10

Fill in the recorded pIC50 for this compound, with PI3Kδ (Homo sapiens) as test system: N#Cc1c(N)nc(N)nc1N[C@H](c1nc2c(Cl)cc(F)cc2c(=O)n1-c1c[nH]cn1)C1CC1 [Compound 281]
9.00
